test-method-notes: qHTS for Inhibitors of human tyrosyl-DNA phosphodiesterase 1 (TDP1): qHTS in cells in absence of CPT; note: nearly all actives have a fitted effect of over 55% in size
test-context: DT40 Tdp1-/- hTDP1 cells, no CPT, ATP luminescence, 48 h
Screen size: about 420,000 compounds; about 64,000 (15%) were called active. Roughly 27% stayed inconclusive and do not appear here. Calls come from the whole dose curve; as a rule, active = well fitted inhibition curve with a large enough effect; inconclusive = small, poorly fitted or top-dose-only effect; inactive = flat fitted curve, though single readings scatter. A selection follows.
Choose one outcome from this list and give only that: active, inactive

compound=COc1ccc(CCNC(=O)Nc2ccc3c(c2)c(=O)n(C)n3C)cc1OC class_label=inactive
compound=COc1ccc(CCNC(=O)CSc2nc3[nH]ncc3c(=O)n2-c2cccc(C(F)(F)F)c2)cc1OC class_label=inactive
compound="CC(=O)NCC(=O)N(C)C(C(=O)Nc1ccc2c(c1)OCCO2)c1ccccc1 (stereo not given)" class_label=inactive
compound="CC(NC(=O)Cn1cc(C(F)(F)F)cc(Cl)c1=O)c1ccccc1 (stereo not given)" class_label=inactive
compound=O=C(Cc1cccs1)NCc1cccc(C(F)(F)F)c1 class_label=inactive

Let's switch to this compound now.
Q: Name the outcome recorded for [2H]C(CCOS(N)(=O)=O)c1ccccc1 (stereo not given) in the assay.
A: inactive

###

test-method-notes: qHTS for Inhibitors of human tyrosyl-DNA phosphodiesterase 1 (TDP1): qHTS in cells in absence of CPT; note: nearly all actives have a fitted effect of over 55% in size
test-context: DT40 Tdp1-/- hTDP1 cells, no CPT, ATP luminescence, 48 h
Description: Human tyrosyl-DNA phosphodiesterase 1 (TDP1) is a novel repair gene, and we propose to use it as a new target for anticancer drug development. […] For the primary screen, Tdp1-/-;hTDP1 cells will be exposed to small molecules in the presence or absence of CPT, and their growth kinetics will be evaluated after 48 hours by measuring ATP activity. […] The hit compounds will then be evaluated in the presence or absence of CPT using Tdp1-/- cells. […]
The campaign covered roughly 420,000 compounds. About 64,000 (15%) were called active. Roughly 27% stayed inconclusive and do not appear here. Calls come from the whole dose curve; as a rule, active = well fitted inhibition curve with a large enough effect; inconclusive = small, poorly fitted or top-dose-only effect; inactive = flat fitted curve, though single readings scatter. These entries were drawn from the full list.
Choose one outcome from this list and give only that: 1 (active), -1 (inactive)

Q: Name the outcome recorded for COc1ccc(CCNC(=O)/C(C#N)=C2\N=C(NC(=O)c3cccs3)c3ccccc32)cc1 in the assay.
A: 1

Q: Name the outcome recorded for COc1ccc(C(=O)NCC[N+](C)(C)C)cc1 in the assay.
A: -1

Q: Name the outcome recorded for Cc1ccc(C)c(C(C)NC(=O)C2CCCO2)c1 (configuration not stated) in the assay.
A: -1

Q: Name the outcome recorded for Cc1cccc(NC(=O)c2ccc(S(=O)(=O)N(C)c3ccccc3)cc2)n1 in the assay.
A: 1

Q: Name the outcome recorded for COc1ccc(NC(=O)COC(=O)c2ccc(NS(=O)(=O)/C=C/c3ccccc3)cc2)cc1 in the assay.
A: -1

Q: Name the outcome recorded for O=S(=O)(Nc1ccc(-n2cnnn2)cc1)c1ccc(Cl)cc1 in the assay.
A: -1

Q: Name the outcome recorded for O=C1CCC(=O)N1CCOP1(=O)COc2ccccc2OC1 in the assay.
A: -1

###

test-method-notes: qHTS for Inhibitors of human tyrosyl-DNA phosphodiesterase 1 (TDP1): qHTS in cells in absence of CPT; note: nearly all actives have a fitted effect of over 55% in size
test-context: DT40 Tdp1-/- hTDP1 cells, no CPT, ATP luminescence, 48 h
The whole screen tested about 420,000 compounds, of which about 64,000 (15%) were called active. Roughly 27% stayed inconclusive and do not appear here. The call rests on the fitted dose curve; in most records, active means well fitted inhibition curve with a large enough effect; inconclusive means small, poorly fitted or top-dose-only effect; inactive means flat fitted curve, though single readings scatter. Not all results are given here.
Choose one outcome from this list and give only that: true = active, false = inactive

Look over these answered cases.
compound=Cc1ccc(OCCOCCOc2ccc(Br)cc2/C=N\NC(=O)c2ccncc2)cc1 class_label=true
compound="CSCCC(NS(=O)(=O)c1ccc(C)cc1)C(=O)NCCc1c[nH]c2ccccc12 (stereo not drawn)" class_label=false
compound=CCc1ccccc1NC(=O)c1cc(-c2ccc3c(c2)OCO3)on1 class_label=false
compound=O=C(CN1CCOCC1)Nc1c(Cl)cc(Cl)cc1Cl class_label=false
compound="COc1ccc(CC(NC(C)=O)C(=O)NC2CCN(C(=O)c3ccc(OC)c(OC)c3)CC2)cc1OC (stereo not drawn)" class_label=false

Q: Name the outcome recorded for CCN(CC(=O)N1CCCC1)S(=O)(=O)c1ccc(F)cc1 in the assay.
A: false

Q: Name the outcome recorded for CCN(CC(=O)Nc1ccc(OC)cc1)C(=O)CSCc1ccc(C)cc1 in the assay.
A: false

Q: Name the outcome recorded for O=C(NCCSc1ccccc1)c1ccco1 in the assay.
A: false

Q: Name the outcome recorded for CC(=O)Nc1ccc2nc(SCCOc3cc(C)cc(C)c3)sc2c1 in the assay.
A: true

Q: Name the outcome recorded for CC1CCCCN1C(=O)CCS(=O)(=O)Cc1ccccc1 (stereo not drawn) in the assay.
A: false

Q: Name the outcome recorded for O=C(NCCc1ccccc1)c1c[nH]c2ccc(F)cc2c1=O in the assay.
A: false

Q: Name the outcome recorded for Cc1onc(C(=O)NN)c1-c1csc(COc2ccccc2)n1 in the assay.
A: false

Q: Name the outcome recorded for CCCCc1ccc(NC(=S)N2CCCC(CO)C2)cc1 (stereo not drawn) in the assay.
A: false

Q: Name the outcome recorded for CN(C)c1ccc(C(CNS(=O)(=O)c2cc(F)ccc2F)N2CCOCC2)cc1 (stereo not drawn) in the assay.
A: false

Q: Name the outcome recorded for O=C(CC(c1ccccc1)c1ccccc1)NCC(O)c1ccc([N+](=O)[O-])cc1 (stereo not drawn) in the assay.
A: false

Q: Name the outcome recorded for CCN1C[C@@H]2[C@@H]3C(=O)N(Cc4ccccc4)C(=O)[C@@H]3[C@](Cc3ccccc3)(C(=O)OC)N2C1=NC1CCCCC1 in the assay.
A: true

Q: Name the outcome recorded for CN(c1ccccc1)S(=O)(=O)c1ccc(Cl)c(C(=O)OCC(N)=O)c1 in the assay.
A: false

Q: Name the outcome recorded for CCS(=O)(=O)Nc1cc(C(=O)N2C[C@@H](C)O[C@@H](C)C2)c2c(c1)nc(-c1ccccc1)n2C in the assay.
A: false

Q: Name the outcome recorded for O=C(Nc1ccc(CN2CCOCC2)cc1)c1cc(Cl)ccc1Cl in the assay.
A: false

Q: Name the outcome recorded for Cc1ccc(OCCOc2cccc(/C=N/NC(N)=O)c2)cc1 in the assay.
A: false

Q: Name the outcome recorded for COc1ccc2[nH]c(=O)c(C3c4cc(OC)c(OC)cc4CCN3C(=O)c3ccco3)cc2c1 (stereo not drawn) in the assay.
A: false

Q: Name the outcome recorded for CCNC(=S)NCC in the assay.
A: false

Q: Name the outcome recorded for O=C(O)c1cccc(S(=O)(=O)N2CC=C(c3ccccc3)CC2)c1 in the assay.
A: false
